// reported SI (Selectivity Index, CC50/EC50) per item
System: Junin virus (Candid #1 strain)
Assay type: cell-based

In: In one line, give reported SI (Selectivity Index, CC50/EC50) of the entry NC(=O)c1nc(F)c[nH]c1=O .
Out: >23

In: Give SI (Selectivity Index, CC50/EC50) for the following molecule: NC(=O)c1ncn([C@@H]2O[C@H](CO)[C@@H](O)[C@H]2O)n1
Out: >7

In: Specify measured SI (Selectivity Index, CC50/EC50) for O=c1cnn([C@@H]2O[C@H](CO)[C@@H](O)[C@H]2O)c(=O)[nH]1 .
Out: >151

In: Indicate its recorded SI (Selectivity Index, CC50/EC50); the molecule in question is Nc1cc2nc[nH]c2c(=O)[nH]1
Out: >63

In: For the molecule C#Cc1c(C(N)=O)ncn1[C@@H]1O[C@H](CO)[C@@H](O)[C@H]1O , give its reported SI (Selectivity Index, CC50/EC50).
Out: >52

In: Respond only with SI (Selectivity Index, CC50/EC50) recorded for COc1c(C)c2c(c(O)c1C/C=C(\C)CCC(=O)O)C(=O)OC2
Out: >100

Value source: paper PMC5479350
